Data provenance is paper PMC5769417.

Experiment: Multiple-dose trial, plasma pharmacokinetics
Format: in vivo, human
Conditions: both sexes, human, plasma, po, 400 mg, 400 mg oral after breakfast, Day 1, read-out: t1/2 (converted)
reported property: half-life (h)
Value expressed in h; do not type the unit.

Q) Could you tell me which half-life is on file for CC(C)=CCC[C@](C)(OC1O[C@H](CO)[C@@H](O)[C@H](O)[C@H]1O)[C@H]1CC[C@]2(C)[C@@H]1[C@H](O)C[C@@H]1[C@@]3(C)CC[C@H](O)C(C)(C)[C@@H]3CC[C@]12C (stereo partly shown) ?
A) 26.1

* * *

Test: Single-dose trial, plasma pharmacokinetics
Format: in vivo, human
Details: both sexes, human, plasma; single-dose trial, 600 mg oral, fasting
reported property: MRT inf (h)
Answer format: numeric, h implied, no suffix.

Q) Given the molecule CC(C)=CCC[C@](C)(OC1O[C@H](CO)[C@@H](O)[C@H](O)[C@H]1O)[C@H]1CC[C@]2(C)[C@@H]1[C@H](O)C[C@@H]1[C@@]3(C)CC[C@H](O)C(C)(C)[C@@H]3CC[C@]12C (stereo partly shown) [CK] , what is its reported MRT inf?
A) 15.9
